// provenance: DBAASP

System: Candida albicans
Consider the following compounds and their measured MIC readings.
METRIC_NAME: MIC

query_smiles=CC(C)C[C@H](NC(=O)[C@H](Cc1ccccc1)NC(=O)[C@@H]1CCCN1C(=O)[C@H](Cc1c[nH]c2ccccc12)NC(=O)[C@H](CS)NC(=O)[C@@H](NC(=O)[C@H](Cc1c[nH]c2ccccc12)NC(=O)[C@@H]1CCCN1C(=O)[C@H](Cc1ccccc1)NC(=O)[C@H](CCCN=C(N)N)NC(=O)[C@H](CCCN=C(N)N)NC(=O)[C@@H](N)CCCN=C(N)N)C(C)C)C(=O)N[C@@H](CCCN=C(N)N)C(=O)N[C@@H](CCCN=C(N)N)C(=O)N[C@@H](CCCN=C(N)N)C(=O)O result="469 µM"
query_smiles=CC[C@H](C)[C@H](N)C(=O)N[C@@H](CC(C)C)C(=O)NCC(=O)N[C@@H](C)C(=O)N[C@H](C(=O)N[C@H](C(=O)N1CCC[C@H]1C(=O)N[C@@H](CC(C)C)C(=O)N[C@H](C(=O)N[C@@H](CO)C(=O)NCC(=O)N[C@@H](CC(C)C)C(=O)N[C@@H](CC(C)C)C(=O)N[C@@H](CO)C(=O)N[C@@H](Cc1cnc[nH]1)C(=O)N[C@@H](CC(C)C)C(N)=O)C(C)C)[C@@H](C)CC)[C@@H](C)CC result="310 µM"
query_smiles=CC[C@H](C)[C@H](NC(=O)[C@H](CC(C)C)NC(=O)[C@H](CO)NC(=O)[C@H](CC(C)C)NC(=O)[C@H](CC(C)C)NC(=O)[C@@H](N)CO)C(=O)N[C@@H](CCCN=C(N)N)C(=O)N[C@@H](CCCCN)C(=O)N[C@@H](CC(C)C)C(=O)N[C@H](C(=O)N[C@H](C(N)=O)[C@@H](C)O)[C@@H](C)CC result="20 µM"
query_smiles=CC[C@H](C)[C@H](NC(=O)CNC(=O)[C@H](CO)NC(=O)[C@H](CC(C)C)NC(=O)[C@H](CC(C)C)NC(=O)CN)C(=O)N[C@@H](CC(C)C)C(=O)NCC(=O)N[C@@H](C)C(=O)NCC(=O)N[C@@H](CCCCN)C(=O)N[C@@H](Cc1cnc[nH]1)C(=O)N[C@H](C(=O)N[C@H](C(=O)N[C@H]1CSSC[C@@H](C(=O)O)NC(=O)[C@H](CC(C)C)NC(=O)CNC(=O)[C@H](CO)NC(=O)[C@H](CC(C)C)NC(=O)CNC1=O)[C@@H](C)CC)[C@@H](C)CC result="0.555 µM"
query_smiles=CC(C)C[C@H](NC(=O)[C@H](CCCN=C(N)N)NC(=O)[C@H](Cc1cnc[nH]1)NC(=O)[C@@H](NC(=O)[C@H](CCCN=C(N)N)NC(=O)CNC(=O)[C@@H](NC(=O)[C@@H]1CCCN1C(=O)[C@H](Cc1ccccc1)NC(=O)[C@H](CCC(N)=O)NC(=O)[C@H](CC(C)C)NC(=O)CNC(=O)[C@H](C)NC(=O)[C@@H](N)CCCN=C(N)N)C(C)C)C(C)C)C(=O)O result="> 159 µM"
